Give DR4w4 binding data for every item shown.
- target_system: DRB1*0401 (DR4w4) (Homo sapiens, UniProt P01903+P01911, A100K/A169T/F76Y/I96L/K127E/L162R/M171V/N62H/P40V/Q125Y/R42H/S133A/S149N/S66Y/V115G/V209L/W38E)
- protocol_description: HLA class II peptide binding assay, purified HLA
- test_settings: Table XIX, DR supermotif peptides; unit not given

Sample CC[C@H](C)[C@H](NC(=O)[C@H](CCSC)NC(=O)[C@H](Cc1ccc(O)cc1)NC(=O)[C@@H](NC(=O)[C@H](CC(=O)O)NC(=O)[C@@H](NC(=O)[C@@H](NC(=O)[C@H](CS)NC(=O)[C@@H](NC(=O)[C@@H]1CCCN1C(=O)[C@@H]1CCCN1C(=O)[C@@H](N)CCC(N)=O)[C@@H](C)CC)[C@@H](C)O)[C@@H](C)CC)C(C)C)C(=O)N[C@@H](CCSC)C(=O)N[C@H](C(=O)N[C@@H](CCCCN)C(=O)O)C(C)C — what was its DR4w4 binding data?
0.0060

Need DR4w4 binding data, item CC[C@H](C)[C@H](NC(=O)CNC(=O)[C@H](CC(C)C)NC(=O)[C@H](CC(C)C)NC(=O)[C@H](CCCNC(=N)N)NC(=O)[C@@H](N)CO)C(=O)N[C@@H](CS)C(=O)N[C@@H](CC(C)C)C(=O)N[C@H](C(=O)N[C@@H](CO)C(=O)N[C@H](C(=O)N[C@H](C(=O)N[C@@H](CCC(N)=O)C(=O)N[C@@H](CC(C)C)C(=O)N[C@H](C(=O)O)C(C)C)C(C)C)[C@@H](C)O)[C@@H](C)O
0.1200

Recorded DR4w4 binding data of CC(C)C[C@H](NC(=O)[C@H](CC(=O)O)NC(=O)[C@H](CCCNC(=N)N)NC(=O)[C@H](Cc1c[nH]cn1)NC(=O)[C@@H](NC(=O)[C@H](CC(C)C)NC(=O)[C@H](CCCNC(=N)N)NC(=O)[C@@H](N)C(C)C)C(C)C)C(=O)N[C@@H](C)C(=O)N[C@@H](C)C(=O)N[C@@H](CCCNC(=N)N)C(=O)N[C@@H](CC(N)=O)C(=O)N[C@H](C(=O)N[C@@H](CC(C)C)C(=O)N[C@H](C(=O)O)C(C)C)C(C)C , please.
0.0150

---

- target_system: DRB1*0301 (DR3) (Homo sapiens, UniProt P01903+P01911, A100K/A102G/A103R/A169T/F55Y/I96L/K41T/L162R/M171V/P40S/Q125H/Q178H/Q39Y/R42S/S66N/T106N/T262R/W38E/Y61H)
- Sequence (P01903 26-254 limits assumed, other chains not shown): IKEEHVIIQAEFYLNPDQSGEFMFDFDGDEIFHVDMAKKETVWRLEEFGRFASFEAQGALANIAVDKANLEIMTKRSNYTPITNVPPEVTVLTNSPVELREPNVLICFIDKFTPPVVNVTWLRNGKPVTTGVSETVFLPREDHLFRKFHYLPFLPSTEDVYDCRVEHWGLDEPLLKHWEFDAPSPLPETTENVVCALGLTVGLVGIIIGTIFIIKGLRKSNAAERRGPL
- protocol_description: HLA class II peptide binding assay, purified HLA
- test_settings: Table XXa, DR 3a motif peptides; unit not given
result_type: DR3 binding data
Just the number.

Fill in the blank: the reported DR3 binding data of CSCC[C@H](NC(=O)[C@H](CCCNC(=N)N)NC(=O)[C@H](CO)NC(=O)[C@H](Cc1ccccc1)NC(=O)[C@H](CCC(=O)O)NC(=O)[C@H](CO)NC(=O)[C@@H](NC(=O)[C@H](CC(C)C)NC(=O)[C@H](CCC(=O)O)NC(=O)[C@H](CCCNC(=N)N)NC(=O)[C@@H](N)Cc1ccccc1)C(C)C)C(=O)N[C@@H](C)C(=O)N[C@@H](CCCNC(=N)N)C(=O)N[C@@H](CC(=O)O)C(=O)N1CCC[C@H]1C(=O)O is ____.
0.0710

What does the data say about its DR3 binding data? Entry: CC[C@H](C)[C@H](NC(=O)[C@H](CCCNC(=N)N)NC(=O)[C@H](CCSC)NC(=O)[C@@H](N)CCC(N)=O)C(=O)N[C@@H](CC(C)C)C(=O)N[C@@H](CCCCN)C(=O)N[C@@H](CCC(=O)O)C(=O)N[C@H](C(=O)N[C@@H](CCC(=O)O)C(=O)N[C@@H](CC(C)C)C(=O)N[C@@H](CCCNC(=N)N)C(=O)N[C@@H](CCCCN)C(=O)N[C@H](C(=O)N[C@@H](CCCCN)C(=O)N[C@H](C(=O)O)C(C)C)C(C)C)[C@@H](C)O
0.3200

Recorded DR3 binding data of CSCC[C@H](NC(=O)CNC(=O)[C@H](CC(C)C)NC(=O)CNC(=O)[C@H](Cc1ccc(O)cc1)NC(=O)[C@@H](N)CS)C(=O)N[C@@H](CCC(=O)O)C(=O)N[C@@H](Cc1c[nH]cn1)C(=O)N[C@@H](CC(C)C)C(=O)N[C@@H](CCCNC(=N)N)C(=O)N[C@@H](CCC(=O)O)C(=O)N[C@H](C(=O)N[C@@H](CCCNC(=N)N)C(=O)N[C@@H](C)C(=O)N[C@H](C(=O)O)C(C)C)C(C)C , please.
0.0083

Recorded DR3 binding data of CC(C)C[C@H](NC(=O)[C@@H]1CCCN1C(=O)[C@@H](NC(=O)[C@@H](NC(=O)[C@@H]1CCCN1C(=O)[C@H](CC(=O)O)NC(=O)[C@H](CCC(=O)O)NC(=O)[C@H](CO)NC(=O)[C@H](Cc1ccc(O)cc1)NC(=O)[C@H](CCCNC(=N)N)NC(=O)[C@H](CCC(N)=O)NC(=O)[C@@H](N)CC(C)C)[C@@H](C)O)C(C)C)C(=O)N1CCC[C@H]1C(=O)N[C@@H](CO)C(=O)N[C@@H](CCC(=O)O)C(=O)O , please.
0.0270
